I'd be grateful if you could share measured iScore for these entries.
Target: T1, MHC class I molecule B*0702 (biotin (bound to streptavidin-coated plate))
T1 construct: also called B7; HLA-B7
Assay: iTopia iScore
Numbers only.

RALQGLRRL [5T4 9-mer peptide 104 RALQGLRRL]	0.078
PLADLSPFA [5T4 9-mer peptide 77 PLADLSPFA]	0
ECSEAARTV [5T4 9-mer peptide 34 ECSEAARTV]	0
SEAARTVKC [5T4 9-mer peptide 35 SEAARTVKC]	0
DEVRAGAFE [5T4 9-mer peptide 66 DEVRAGAFE]	0
APSPLVELI [5T4 9-mer peptide 86 APSPLVELI]	0.101
EDERQNRSF [5T4 9-mer peptide 94 EDERQNRSF]	0
LDLSHNPLA [5T4 9-mer peptide 74 LDLSHNPLA]	0

Look up iScore for the entries below, preserving their order.
1. TGNQLAVLP [5T4 9-mer peptide 50 TGNQLAVLP]
2. FLTGNQLAV [5T4 9-mer peptide 49 FLTGNQLAV]
3. QCPALCECS [5T4 9-mer peptide 31 QCPALCECS]

A)
1. 0
2. 0
3. 0

Look up iScore for the entries below, preserving their order.
1. SASSFSSSA [5T4 9-mer peptide 19 SASSFSSSA]
2. LALVLLGWV [5T4 9-mer peptide 11 LALVLLGWV]
3. RHLDLSNNS [5T4 9-mer peptide 119 RHLDLSNNS]

A)
0
0
0

Look up iScore for the entries below, preserving their order.
1. LASNHFLYL [5T4 9-mer peptide 109 LASNHFLYL]
2. LPSLRQLDL [5T4 9-mer peptide 71 LPSLRQLDL]

A)
[0, 0.454]
